Target: T1, human sucrase-isomaltase complex (hSI) receptor domain, amino acid residues 272-667, His-tag fusion protein (human, UniProt P14410 272-667)
T1 construct: Expressed as His-tag fusion, purified under denaturing conditions (urea or guanidine HCl), coated on plates; also called hS1 receptor domain; not shown: poly-histidine tag (pET His-tag) at the NH2-terminal end
T1 sequence (P14410 272-667, one chain of several): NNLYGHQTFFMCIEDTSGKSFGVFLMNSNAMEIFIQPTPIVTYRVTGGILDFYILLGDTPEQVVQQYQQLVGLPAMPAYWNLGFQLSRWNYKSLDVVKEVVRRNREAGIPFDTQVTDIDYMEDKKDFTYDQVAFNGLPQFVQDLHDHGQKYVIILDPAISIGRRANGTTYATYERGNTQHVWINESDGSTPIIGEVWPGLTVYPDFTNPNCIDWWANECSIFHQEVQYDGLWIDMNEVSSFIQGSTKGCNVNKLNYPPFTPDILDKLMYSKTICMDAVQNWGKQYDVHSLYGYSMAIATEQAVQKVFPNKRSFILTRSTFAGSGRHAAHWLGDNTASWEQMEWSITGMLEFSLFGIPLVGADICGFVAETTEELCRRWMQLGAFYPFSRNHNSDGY
Assay: phage ELISA, coated hSI domain
OD reference
Enter the number, and then the unit.

- binder: "SSSSDWGGVPGKVVRERFKGRGCGISITSVLTGKPNPCPEPKAA (pIII and flanks not included) [phage S22]"
  OD: "0.399 OD 650 nm"
- binder: "SPKLSSVGVMTKVTELPTEGPNAISIPISATLGPRNPLR (pIII and flanks not included) [phage SNiAX8]"
  OD: "0.342 OD 650 nm"

Req: What does the record list as OD for SGGEVSSWGRVNDLCARVSWTGCGTARSARTDNKGFLPKHSSLR (pIII and flanks not included) [phage SNi45] ?
Resp: 0.518 OD 650 nm

Req: What does the record list as OD for RTTTAKGCLLGSFGVLSGCSFTPTSPPPHLGYPPHSVN (pIII and flanks not included) [phage SNiAX6] ?
Resp: 0.369 OD 650 nm

Req: What does the record list as OD for SDSDGDHYGLRGGVRCSLRDRGCGLALSTVHAGPPSFYPKLSSP (pIII and flanks not included) [phage SNiAX2] ?
Resp: 0.383 OD 650 nm

Req: What does the record list as OD for RVGQCTDSDVRRPWARSCAHQGCGAGTRNSHGCITRPLRQASAH (pIII and flanks not included) [phage SNi10] ?
Resp: 0.57 OD 650 nm
